Protein target, amino acids: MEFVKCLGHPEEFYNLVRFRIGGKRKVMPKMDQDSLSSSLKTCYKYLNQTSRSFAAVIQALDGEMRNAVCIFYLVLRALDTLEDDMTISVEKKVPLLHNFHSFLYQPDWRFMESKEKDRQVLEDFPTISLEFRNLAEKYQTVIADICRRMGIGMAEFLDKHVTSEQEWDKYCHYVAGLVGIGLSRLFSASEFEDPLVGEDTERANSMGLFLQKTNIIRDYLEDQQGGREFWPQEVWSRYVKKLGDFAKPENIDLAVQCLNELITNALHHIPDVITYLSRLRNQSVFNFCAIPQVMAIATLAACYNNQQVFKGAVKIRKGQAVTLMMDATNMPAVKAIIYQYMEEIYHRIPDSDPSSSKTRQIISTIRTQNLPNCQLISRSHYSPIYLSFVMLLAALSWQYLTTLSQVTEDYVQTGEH
pIC50: −log10 of the molar value.
Please mark MET if the recorded pIC50 is equal to or greater than 8, and NOT MET if it falls below.

molecule	label
CCOC(=O)C1CCN(C(=O)CCC(=O)N(CC(C)(C)C)c2ccc(Cl)cc2Cc2ccccc2Cl)CC1	NOT MET
CC(C)(C)CN(C(=O)CCC(=O)N1CCCC(C(=O)O)C1)c1ccc(Cl)cc1C(O)c1cc(F)ccc1Cl (stereo not drawn)	NOT MET
COc1cccc(C(O)c2cc(Cl)ccc2N(CC(C)(C)C)C(=O)CCC(=O)N2CCCC(C(=O)O)C2)c1OC (stereo not drawn)	MET
CC(C)(C)CN(C(=O)CCC(=O)O)c1ccc(Cl)cc1C(O)c1ccccc1Cl (stereo not drawn)	NOT MET
CC(C)NC(=O)C1CCN(C(=O)CCC(=O)N(CC(C)(C)C)c2ccc(Cl)cc2C(O)c2ccccc2Cl)CC1 (stereo not drawn)	MET
CCCCNC(=O)C1CCN(C(=O)CCC(=O)N(CC(C)(C)C)c2ccc(Cl)cc2C(O)c2ccccc2Cl)CC1 (stereo not drawn)	MET
CC(C)(C)CN(C(=O)CCC(=O)N1CCN(S(C)(=O)=O)CC1)c1ccc(Cl)cc1C(O)c1ccccc1Cl (stereo not drawn)	NOT MET
